Assay: Pharmacokinetics following PO administration of Compound KC-55 to rats (Example 48)
Conditions: male, Sprague Dawley, rat, plasma, po, 10 mg/kg
endpoint: Cmax

>>> result("COc1ccc2c3c1O[C@H]1C(=O)CC[C@@]4(O)[C@@H](C2)N(C)CC[C@]314 [Oxycodone, oxycodone, reference compound]")
"14.7 ng/mL"
